Source: patent US20260085062A1

# Measured target: CLK2 (Homo sapiens, UniProt P49760)
# Sequence (P49760 whole entry): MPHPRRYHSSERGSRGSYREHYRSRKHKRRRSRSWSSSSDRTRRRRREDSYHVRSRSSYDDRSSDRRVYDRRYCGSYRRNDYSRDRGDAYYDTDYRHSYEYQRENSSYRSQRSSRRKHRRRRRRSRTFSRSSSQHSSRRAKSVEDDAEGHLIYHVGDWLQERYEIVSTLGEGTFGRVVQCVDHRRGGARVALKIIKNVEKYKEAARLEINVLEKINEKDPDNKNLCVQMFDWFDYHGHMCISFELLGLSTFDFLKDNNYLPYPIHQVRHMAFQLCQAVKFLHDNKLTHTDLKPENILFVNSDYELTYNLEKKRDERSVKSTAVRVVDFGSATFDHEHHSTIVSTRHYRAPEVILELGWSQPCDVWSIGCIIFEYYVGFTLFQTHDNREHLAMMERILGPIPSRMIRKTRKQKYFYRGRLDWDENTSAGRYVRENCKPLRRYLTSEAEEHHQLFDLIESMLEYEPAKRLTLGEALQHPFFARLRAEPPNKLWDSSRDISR
Result type: IC50 (µM)
Note: unit µM is implicit; provide only the numeric part.

See these solved cases before continuing.
{"columns": ["Compound", "Measured target", "Unit symbol", "IC50"],
 "data": [
  ["CNc1n[nH]c2cc(-n3cnnc3)cc(NCCOCCCCNCc3cc(F)c(OC(F)(F)F)c(F)c3)c12 [Example 190]", "CLK2 (Homo sapiens, UniProt P49760)", "µM", 1.1],
  ["N#CCc1cc(CNCCCCOC2CN(c3cc(-n4cnnc4)cc4[nH]ncc34)C2)cc(C(F)(F)F)c1 [Example 105]", "CLK2 (Homo sapiens, UniProt P49760)", "µM", 0.167]
]}

Request: # IC50 lookup, item FC(F)(F)Oc1ccc(CNCCCCOCCOc2cc(-n3cnnc3)cc3[nH]nnc23)cc1Cl [Example 123]
Result: 44.7
